# TARGET OR TEST SYSTEM: rat brain farnesyl protein transferase (PFT) (Rattus norvegicus, UniProt Q02293+Q04631)
# Construct: 40-fold purified rat brain farnesyl protein transferase; from tissue; host or cells: rat brain
# Sequence (Q02293 whole entry, one chain of several): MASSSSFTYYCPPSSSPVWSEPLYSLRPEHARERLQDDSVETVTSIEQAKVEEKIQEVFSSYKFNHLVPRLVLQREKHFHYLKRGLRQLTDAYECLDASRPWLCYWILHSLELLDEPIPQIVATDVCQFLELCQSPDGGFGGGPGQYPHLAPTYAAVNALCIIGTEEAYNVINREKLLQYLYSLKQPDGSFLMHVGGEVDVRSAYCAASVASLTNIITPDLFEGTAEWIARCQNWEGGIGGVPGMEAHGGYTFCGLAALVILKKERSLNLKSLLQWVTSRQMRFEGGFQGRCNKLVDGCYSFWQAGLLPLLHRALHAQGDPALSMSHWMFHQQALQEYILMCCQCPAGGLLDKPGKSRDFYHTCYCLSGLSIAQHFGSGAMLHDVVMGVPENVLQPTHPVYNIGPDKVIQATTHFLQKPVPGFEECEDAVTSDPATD
# ASSAY OVERVIEW: PFT inhibitory activity assay (radiolabeled farnesyl pyrophosphate, biotinyl peptide, streptavidin beads)
# Format: biochemical
# ASSAY SETUP: 40-fold purified rat brain enzyme; 0.12 μM [3H]FPP, 0.1 μM biotinyl-Ahe-Tyr-Lys-Cys-Val-Ile-Met; 37° C., 30 minutes; read-out: IC50 (μM) against PFT
Peptide text beside a SMILES is read from it. * marks the point of attachment. NHPhenethyl = c1ccc(CCN*)cc1; Cbz = O=C(OCc1ccccc1)*; Bn = c1ccc(C*)cc1
READOUT NAME: IC50 (µM)
// units = µM; emit number, no label

Incoming: Any idea what IC50 was measured for O=C(N[C@@H](Cc1c[nH]cn1)C(=O)N[C@@H](Cc1ccc(OCc2ccccc2)cc1)C(=O)NCCc1ccccc1)OCc1ccccc1 [Example 23] (Cbz-His-Tyr(Bn)-NHPhenethyl) ?
Outgoing: 1.9

Incoming: # iterate: CN(C(=O)OCc1ccccc1)[C@H](Cc1c[nH]cn1)C(=O)N[C@@H](Cc1ccc(OCc2ccccc2)cc1)C(=O)NCCOCc1ccccc1 [Example 21]
Outgoing: 0.31

Incoming: # iterate: CCCCNC(=O)NC(Cc1cnc[nH]1)C(=O)NC(Cc1ccc(OCc2ccccc2)cc1)C(=O)NCCCCc1ccccc1 [5 (4), BuNHCO--D--His--Tyr(OBn)--CONH(CH2)4 Ph]
Outgoing: 7.3

====

# TARGET OR TEST SYSTEM: rat brain farnesyl protein transferase (PFT) (Rattus norvegicus, UniProt Q02293+Q04631)
# Construct: 40-fold purified rat brain farnesyl protein transferase; from tissue; host or cells: rat brain
# ASSAY OVERVIEW: PFT inhibitory activity assay (radiolabeled farnesyl pyrophosphate, biotinyl peptide, streptavidin beads)
# Format: biochemical
# ASSAY SETUP: 40-fold purified rat brain enzyme; 0.12 μM [3H]FPP, 0.1 μM biotinyl-Ahe-Tyr-Lys-Cys-Val-Ile-Met; 37° C., 30 minutes; read-out: IC50 (μM) against PFT
Square brackets hold non-standard residues; d marks the D form. Peptide text beside a SMILES is read from it. * marks the point of attachment. Bip = N[C@@H](Cc1ccc(-c2ccccc2)cc1)C(=O)O; Hydrocinnamoyl = O=C(CCc1ccccc1)*; 3Pal = N[C@@H](Cc1cccnc1)C(=O)O; Cbz = O=C(OCc1ccccc1)*; Bn = c1ccc(C*)cc1
Friendly reminder: IC50 below 2 µM is 1 (yes), at or above is 0 (no).

Answered cases to consult:
Incoming: API: query returns whether the compound falls strictly under 2 µM in IC50. Query: NC(=O)[C@H](COCc1ccccc1)NC(=O)[C@H](Cc1ccc(OCc2ccccc2)cc1)NC(=O)[C@H](Cc1c[nH]cn1)NC(=O)OCc1ccccc1 [Example 1] (Cbz-His-Tyr(Bn)-Ser(Bn)-NH2)
Outgoing: 0 (no)

Incoming: # iterate: COC(=O)[C@H](COCc1ccccc1)NC(=O)[C@H](CCc1ccc(OCc2ccccc2)cc1)NC(=O)[C@@H](Cc1c[nH]cn1)NC(=O)OCc1ccccc1
Outgoing: 0 (no)

Incoming: # iterate: COc1ccccc1CCCNC(=O)C(Cc1ccc(OCc2ccccc2)cc1)NC(=O)C(Cc1c[nH]cn1)NC(=O)Cc1ccccc1 (stereo not drawn)
Outgoing: 1 (yes)

New cases:
Incoming: API: query returns whether the compound falls strictly under 2 µM in IC50. Query: O=C(Cc1ccccc1)N[C@H](Cc1c[nH]cn1)C(=O)N[C@@H](Cc1ccc(OCc2ccccc2)cc1)C(=O)N1CCN(Cc2ccccc2)CC1
Outgoing: 0 (no)

Incoming: # iterate: COC(=O)[C@H](Cc1cccnc1)NC(=O)[C@H](Cc1ccc(OCc2ccccc2)cc1)NC(=O)[C@H](Cc1c[nH]cn1)NC(=O)OCc1ccccc1 [Example 24] (Cbz-His-Tyr(Bn)-[3Pal]-OMe)
Outgoing: 1 (yes)

Incoming: # iterate: O=C(NC(Cc1c[nH]cn1)C(=O)NC(Cc1ccc(OCc2ccccc2)cc1)C(=O)NCCCCc1ccccc1)OCc1ccccc1 (stereo not drawn)
Outgoing: 1 (yes)

Incoming: # iterate: CCOc1ccc(NC(=O)N[C@@H](Cc2cnc[nH]2)C(=O)N[C@H](Cc2ccc(OCc3ccccc3)cc2)C(=O)NCCCOc2ccccc2)cc1 (stereo in doubt)
Outgoing: 0 (no)

Incoming: # iterate: COC(=O)C(CCSC)NC(=O)C(Cc1ccc(OCc2ccccc2)cc1)NC(=O)C(Cc1cnc[nH]1)NC(=O)NCCc1ccccc1 (stereo not drawn)
Outgoing: 1 (yes)

Incoming: # iterate: COC(=O)[C@H](COCc1ccccc1)NC(=O)[C@H](Cc1ccc(OCc2ccccc2)cc1)NC(=O)[C@H](Cc1c[nH]cn1)NC(=O)CCc1ccccc1 [Example 18] (Hydrocinnamoyl-His-Tyr(Bn)-Ser(Bn)-OMe)
Outgoing: 1 (yes)

Incoming: # iterate: O=C(NCc1ccccc1)N[C@H](Cc1c[nH]cn1)C(=O)N[C@@H](Cc1ccc(OCc2ccccc2)cc1)C(=O)NOCc1ccccc1
Outgoing: 1 (yes)

Incoming: # iterate: CCNC(=O)[C@H](COCc1ccccc1)NC(=O)[C@H](Cc1ccc(OCc2ccccc2)cc1)NC(=O)[C@H](Cc1c[nH]cn1)NC(=O)OCc1ccccc1 [Example 11] (Cbz-His-Tyr(Bn)-Ser(Bn)-NHEt)
Outgoing: 1 (yes)

Incoming: # iterate: COC(=O)[C@H](COCc1ccccc1)NC(=O)[C@H](Cc1ccc(-c2ccccc2)cc1)NC(=O)[C@H](Cc1c[nH]cn1)NC(=O)OCc1ccccc1 [Example 16] (Cbz-His-[Bip]-Ser(Bn)-OMe)
Outgoing: 1 (yes)

Incoming: # iterate: CCOc1ccc(NC(=O)NC(Cc2cnc[nH]2)C(=O)NC(Cc2ccc(OCc3ccccc3)cc2)C(=O)NCCCOc2ccccc2)cc1 (stereo not drawn)
Outgoing: 1 (yes)

Incoming: # iterate: COC(=O)[C@@H](COCc1ccccc1)NC(=O)[C@H](Cc1ccc(OCc2ccccc2)cc1)NC(=O)[C@H](Cc1c[nH]cn1)NC(=O)OCc1ccccc1 [Example 9] (Cbz-His-Tyr(Bn)-[dS](Bn)-OMe)
Outgoing: 1 (yes)

Incoming: # iterate: Cc1ccc(S(=O)(=O)N[C@@H](Cc2cnc[nH]2)C(=O)N[C@H](Cc2ccc(OCc3ccccc3)cc2)C(=O)N2CCN(Cc3ccccc3)CC2)cc1 (stereo in doubt)
Outgoing: 0 (no)

Incoming: # iterate: O=C(Nc1ccccc1)NC(Cc1c[nH]cn1)C(=O)NC(Cc1ccc(OCc2ccccc2)cc1)C(=O)NCCCOc1ccccc1 (stereo not drawn)
Outgoing: 0 (no)

Incoming: # iterate: CN(CCOCc1ccccc1)C(=O)[C@H](Cc1ccc(OCc2ccccc2)cc1)NC(=O)[C@H](Cc1c[nH]cn1)NC(=O)OCc1ccccc1
Outgoing: 0 (no)
